Biological target: Prostaglandin G/H synthase 1 (Ovis aries)
Sequence (P05979 whole entry): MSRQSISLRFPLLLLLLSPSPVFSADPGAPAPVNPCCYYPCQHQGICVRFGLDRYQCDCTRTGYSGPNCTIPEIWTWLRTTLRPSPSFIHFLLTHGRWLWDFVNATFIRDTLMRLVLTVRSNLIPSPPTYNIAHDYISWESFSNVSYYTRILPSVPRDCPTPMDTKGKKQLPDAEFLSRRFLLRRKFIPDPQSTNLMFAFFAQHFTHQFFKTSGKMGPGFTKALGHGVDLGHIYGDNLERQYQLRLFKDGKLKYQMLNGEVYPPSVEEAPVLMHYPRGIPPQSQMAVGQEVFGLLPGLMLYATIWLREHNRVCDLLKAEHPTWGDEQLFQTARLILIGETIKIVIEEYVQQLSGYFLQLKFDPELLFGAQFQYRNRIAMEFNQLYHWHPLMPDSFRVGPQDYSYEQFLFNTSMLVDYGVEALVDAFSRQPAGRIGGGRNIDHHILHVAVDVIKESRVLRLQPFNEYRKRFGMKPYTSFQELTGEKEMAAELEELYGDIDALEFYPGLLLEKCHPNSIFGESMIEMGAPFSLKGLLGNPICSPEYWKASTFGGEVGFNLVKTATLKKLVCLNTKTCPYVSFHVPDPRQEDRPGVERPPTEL
Parameter: IC50

Query block: I have this molecule here, `COC1(c2cccc(CN(c3ccccc3OCc3ccccc3)S(C)(=O)=O)c2)CCOCC1` , and I need its recorded IC50.
Result block: > 100 µM

Query block: Another molecule to look at: `COC1(c2cccc(CN(c3ccc(Cl)cc3OCc3ccccc3)S(C)(=O)=O)c2)CCOCC1`
Result block: > 100 µM

Query block: Another molecule to look at: `COC1(c2cccc(CNc3cc(C)ccc3OCc3ccccc3)c2)CCOCC1`
Result block: > 100 µM

Let's switch to this molecule now.
Query block: I have this molecule here, `COC1(c2cccc(CN(c3cc(C)ccc3OCc3ccccc3)S(C)(=O)=O)c2)CCOCC1` , and I need its recorded IC50.
Result block: > 100 µM
